Test system: HOP-62
Test: NCI tumour cell line growth inhibition, 48 h
Calls of active or inactive are those of the source. Cut-off read from the data, not from the text of the source: active = GI50 up to about 1.1 µM and inactive = higher.
Your reply should match one of these outcome classes. active, inactive

compound: Cc1c(CNc2ccc(Cl)c(C(=O)NC(CC(=O)O)C(=O)O)c2)ccc2nc(N)nc(N)c12 (stereo unspecified)
groupLabel: active
--
compound: COc1ccc2c3ccc4c(c3n(C)c2c1)C(=O)C=CC4=O
groupLabel: inactive
--
compound: N#CC(NNC(=O)c1ccccc1O)c1ccccc1O (stereo unspecified)
groupLabel: inactive
--
compound: c1ccc2c(c1)C1=NCCN1c1ccccc1-2
groupLabel: inactive
--
compound: NC(Cc1cccnn1)C(=O)O (stereo unspecified)
groupLabel: inactive

Req: Each compound tested received a call. Report the one for COc1ccc(/N=C2/SC(=N/N=c3\sc4ccccc4n3C)S/C2=N/c2ccc(OC)cc2)cc1 .
Resp: inactive

Req: Each compound tested received a call. Report the one for CS(=O)(=O)C1S(=O)(=O)OCCOS1(=O)=O .
Resp: inactive
